Each recorded value in this set is attributed to patent US20240132484A1.

tested on: cells (nuclei count); settings: Average of Exp 1 (SMW491) and Exp 2 (SMW492), n=4, 1 uM
endpoint-name: Toxicity Data, Average, Mean percentage relative to DMSO control (%)
Numeric only. Scale: %

Return reported Toxicity Data, Average, Mean percentage relative to DMSO control; argument: COc1ccc(CNCCc2ccccc2F)c(OCC(O)CN2CCN(C)CC2)c1 (stereo not shown) [SILCS45]
116.96

Return reported Toxicity Data, Average, Mean percentage relative to DMSO control; argument: CCN(CC)CCN(Cc1cc(C)c(Br)s1)Cc1cc(C)c(Br)s1
107.69

Return reported Toxicity Data, Average, Mean percentage relative to DMSO control; argument: CCN(CC)CCN(Cc1ccncc1)C(=O)c1cccs1
111.85

Return reported Toxicity Data, Average, Mean percentage relative to DMSO control; argument: CN(C)CCCN(Cc1cccs1)C(=O)c1cccs1
86.49
